B1: LINE1-full (parent)
chain: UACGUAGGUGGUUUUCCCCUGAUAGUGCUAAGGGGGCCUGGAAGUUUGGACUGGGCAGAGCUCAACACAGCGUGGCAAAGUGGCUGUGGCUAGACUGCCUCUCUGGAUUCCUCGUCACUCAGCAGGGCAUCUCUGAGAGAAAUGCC

- Variants of: B1
- ASSAY_METHOD_TEXT: self-cleavage, relative activity (ratio to wild type); higher = more cleavage; in vitro, sequencing; the parent is a self-cleaving ribozyme
OBSERVED_PROPERTY: self-cleavage
The answer should be written as a number, with no unit following it.

**Query** // fetch self-cleavage given entry G53A C128U
**Result** 1.34

**Query** // fetch self-cleavage given entry A50G A136U
**Result** 1.15

**Query** // fetch self-cleavage given entry A59G U108A
**Result** 0.11

**Query** // fetch self-cleavage given entry G35A A50G
**Result** 0.58

**Query** // fetch self-cleavage given entry U100C U112C
**Result** 1.89

**Query** // fetch self-cleavage given entry A24U A59G
**Result** 0.06

**Query** // fetch self-cleavage given entry U52A A69U
**Result** 0.08

**Query** // fetch self-cleavage given entry U81A C120U
**Result** 0.99

**Query** // fetch self-cleavage given entry A2G U13A
**Result** 0.99

**Query** // fetch self-cleavage given entry U1G U46G
**Result** 0.33

**Query** // fetch self-cleavage given entry U45C U143A
**Result** 1.39

**Query** // fetch self-cleavage given entry A59G U85G
**Result** 0.14

**Query** // fetch self-cleavage given entry U13A U143G
**Result** 1.01

**Query** // fetch self-cleavage given entry A43G U96A
**Result** 0.07

**Query** // fetch self-cleavage given entry A67C U115A
**Result** 0.04

**Query** // fetch self-cleavage given entry U14C A59U
**Result** 0.88

**Query** // fetch self-cleavage given entry A22G C101A
**Result** 1.47

**Query** // fetch self-cleavage given entry A24G G126A
**Result** 1.09

**Query** // fetch self-cleavage given entry U104C A124U
**Result** 1.76

**Query** // fetch self-cleavage given entry A79G A138G
**Result** 1.22

**Query** // fetch self-cleavage given entry U23A U134G
**Result** 0.89

**Query** // fetch self-cleavage given entry "G105C"
**Result** 1.59

**Query** // fetch self-cleavage given entry U15A A94G
**Result** 0.19

**Query** // fetch self-cleavage given entry U15G G144A
**Result** 0.82

**Query** // fetch self-cleavage given entry G53A A57G
**Result** 0.73

**Query** // fetch self-cleavage given entry "A69C"
**Result** 0.07

**Query** // fetch self-cleavage given entry U87A A140G
**Result** 0.07

**Query** // fetch self-cleavage given entry G72A U109A
**Result** 1.37

**Query** // fetch self-cleavage given entry A77C U112C
**Result** 1.84

**Query** // fetch self-cleavage given entry C51U U132C
**Result** 0.69

**Query** // fetch self-cleavage given entry U52C U109A
**Result** 1.6

**Query** // fetch self-cleavage given entry A64U U85A
**Result** 0.06

**Query** // fetch self-cleavage given entry U12G C116U
**Result** 0.62

**Query** // fetch self-cleavage given entry A77U U112C
**Result** 1.29

**Query** // fetch self-cleavage given entry A77U G83A
**Result** 0.74

**Query** // fetch self-cleavage given entry G34C U73C
**Result** 1.82

**Query** // fetch self-cleavage given entry U81C G105A
**Result** 1.06

**Query** // fetch self-cleavage given entry U73C C111U
**Result** 2.14

**Query** // fetch self-cleavage given entry G11U U134G
**Result** 1.07

**Query** // fetch self-cleavage given entry U20C A94U
**Result** 0.28

**Query** // fetch self-cleavage given entry U45A A59G
**Result** 0.05

**Query** // fetch self-cleavage given entry G7C U13C
**Result** 2.07

**Query** // fetch self-cleavage given entry A43U G72A
**Result** 1.38

**Query** // fetch self-cleavage given entry G33A A59G
**Result** 0.12

**Query** // fetch self-cleavage given entry U52A C98U
**Result** 0.12

**Query** // fetch self-cleavage given entry G7U U13C
**Result** 0.99

**Query** // fetch self-cleavage given entry U20G A129C
**Result** 1.95

**Query** // fetch self-cleavage given entry G35A C131U
**Result** 1.67

**Query** // fetch self-cleavage given entry G54A A136U
**Result** 0.67

**Query** // fetch self-cleavage given entry U47C G60A
**Result** 0.03

**Query** // fetch self-cleavage given entry A6U U109A
**Result** 0.99

**Query** // fetch self-cleavage given entry G32U U91G
**Result** 0.1

**Query** // fetch self-cleavage given entry A2G A92C
**Result** 0.13

**Query** // fetch self-cleavage given entry C16A A124G
**Result** 0.4

**Query** // fetch self-cleavage given entry G27U U134A
**Result** 1.29

**Query** // fetch self-cleavage given entry U15A A129G
**Result** 0.65

**Query** // fetch self-cleavage given entry C18A U46C
**Result** 1.65

**Query** // fetch self-cleavage given entry C71U U85C
**Result** 0.06

**Query** // fetch self-cleavage given entry A22C U102C
**Result** 1.55

**Query** // fetch self-cleavage given entry G58U A69G
**Result** 0.07

**Query** // fetch self-cleavage given entry G27A U134A
**Result** 0.87

**Query** // fetch self-cleavage given entry U13A U23C
**Result** 1.62

**Query** // fetch self-cleavage given entry A78G A141U
**Result** 1.66

**Query** // fetch self-cleavage given entry U39C A69C
**Result** 0.11

**Query** // fetch self-cleavage given entry U9G U130C
**Result** 1.79

**Query** // fetch self-cleavage given entry A65G A92U
**Result** 0.1

**Query** // fetch self-cleavage given entry A77G U104G
**Result** 1.87

**Query** // fetch self-cleavage given entry U12C A117U
**Result** 1.28

**Query** // fetch self-cleavage given entry A42G A140U
**Result** 1.2

**Query** // fetch self-cleavage given entry U12G U130A
**Result** 1.65

**Query** // fetch self-cleavage given entry U14C G86U
**Result** 0.08

**Query** // fetch self-cleavage given entry A78U U104G
**Result** 0.55

**Query** // fetch self-cleavage given entry U23A C98G
**Result** 0.14

**Query** // fetch self-cleavage given entry U13C U119C
**Result** 1.54

**Query** // fetch self-cleavage given entry U12C U14A
**Result** 0.81

**Query** // fetch self-cleavage given entry U73C C90A
**Result** 0.06

**Query** // fetch self-cleavage given entry A92U U130C
**Result** 0.73

**Query** // fetch self-cleavage given entry U104A U115A
**Result** 1.13

**Query** // fetch self-cleavage given entry U12A A94G
**Result** 0.55

**Query** // fetch self-cleavage given entry U1A U132A
**Result** 1.35

**Query** // fetch self-cleavage given entry A77G U85C
**Result** 0.25

**Query** // fetch self-cleavage given entry U26G A142G
**Result** 1.28

**Query** // fetch self-cleavage given entry U15C G74A
**Result** 1.4

**Query** // fetch self-cleavage given entry C116A U143C
**Result** 0.71

**Query** // fetch self-cleavage given entry A77G U109C
**Result** 1.51

**Query** // fetch self-cleavage given entry A67G U81C
**Result** 0.35

**Query** // fetch self-cleavage given entry C16A A117G
**Result** 1.01

**Query** // fetch self-cleavage given entry U115G A141G
**Result** 1.25

**Query** // fetch self-cleavage given entry U85C U102A
**Result** 0.18

**Query** // fetch self-cleavage given entry U104A C123U
**Result** 1.51

**Query** // fetch self-cleavage given entry A30G U73A
**Result** 1.19
